Sourced from patent US20230192860A1

# tested on: T1, hVISTA-ECD 6-His tag (human, UniProt Q9H7M9 33-193)
# T1 construct: also called monovalent hVISTA-ECD; human VISTA
# T1 sequence (Q9H7M9 other isoform, or with tags, fused parts or gaps limits assumed): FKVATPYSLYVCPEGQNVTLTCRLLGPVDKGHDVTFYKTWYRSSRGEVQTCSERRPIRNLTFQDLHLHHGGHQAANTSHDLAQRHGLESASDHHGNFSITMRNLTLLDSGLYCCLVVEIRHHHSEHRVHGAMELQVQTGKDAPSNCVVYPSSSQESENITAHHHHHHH
# assay summary: SPR, Ab on Protein A, hVISTA analyte, pH 6.0
measurement label: koff
# output: numeric value plus its unit

- binder: "P1-068748 (antibody, human IgG1, kappa, V domains shown, also called P1-068748-6) VH: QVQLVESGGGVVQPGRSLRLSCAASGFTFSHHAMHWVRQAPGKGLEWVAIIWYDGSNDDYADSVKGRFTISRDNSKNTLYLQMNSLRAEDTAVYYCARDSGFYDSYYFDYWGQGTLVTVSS VL: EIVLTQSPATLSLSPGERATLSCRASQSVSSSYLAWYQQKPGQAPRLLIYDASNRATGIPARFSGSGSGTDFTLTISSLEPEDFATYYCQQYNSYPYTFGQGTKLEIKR"
  koff: "0.0036 s⁻¹"

Incoming: Name the recorded koff of the item P1-070976 (41F11_VH_T28P_Y50W_S55E_D95H_L96E_P97E_Y100E; Vk_A64G) (antibody, V domains shown, They look like Kabat positions on the mature VH, but no numbering scheme is stated; also called P1-070976-11) VH: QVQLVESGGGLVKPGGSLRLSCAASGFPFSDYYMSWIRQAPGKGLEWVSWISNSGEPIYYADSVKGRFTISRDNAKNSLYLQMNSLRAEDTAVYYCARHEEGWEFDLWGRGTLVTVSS VL: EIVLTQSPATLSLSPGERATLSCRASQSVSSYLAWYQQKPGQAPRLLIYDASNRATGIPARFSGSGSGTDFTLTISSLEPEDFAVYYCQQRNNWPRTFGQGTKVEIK in your answer.
Outgoing: 0.0023 s⁻¹

Incoming: Name the recorded koff of the item P1-061520 (41F11 VK_A64G) (antibody, V domains shown, also called P1-061520-21; VISTA.4.A64G) VH: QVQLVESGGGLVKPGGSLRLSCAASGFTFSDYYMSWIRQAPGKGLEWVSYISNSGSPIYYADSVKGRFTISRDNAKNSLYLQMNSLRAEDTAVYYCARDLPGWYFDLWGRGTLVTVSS VL: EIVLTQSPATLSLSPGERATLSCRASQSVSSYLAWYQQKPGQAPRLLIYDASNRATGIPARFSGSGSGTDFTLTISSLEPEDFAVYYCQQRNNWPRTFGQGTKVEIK in your answer.
Outgoing: 0.0323 s⁻¹

Incoming: Name the recorded koff of the item P1-068744 (antibody, human IgG1, kappa, V domains shown, also called P1-068744-7) VH: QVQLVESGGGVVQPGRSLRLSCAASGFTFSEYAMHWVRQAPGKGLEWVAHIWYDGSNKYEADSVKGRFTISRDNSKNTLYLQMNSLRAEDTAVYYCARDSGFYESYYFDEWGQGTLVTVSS VL: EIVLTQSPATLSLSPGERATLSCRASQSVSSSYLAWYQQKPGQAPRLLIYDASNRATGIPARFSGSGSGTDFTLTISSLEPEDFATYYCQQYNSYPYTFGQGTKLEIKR in your answer.
Outgoing: 0.0043 s⁻¹
